Just for reference, ChEMBL document CHEMBL1144200 is where these values come from.

Assay: Half life in BALB/c mouse at 20 mg/kg, po
Format: ADME, organism-based
Design: dose 20 mg/kg, route oral
Settings: in vivo
Measured Attribute: half-life

Lookup: Consider the compound shown here: Cc1cc(C)cc(-c2ccc3c4c([nH]c3c2)-c2cc(O)c(C(=O)O)cc2CC4)c1 What is its recorded half-life?
Found: 4.1 h

---

Molecular target: UniProt P40238
Sequence (whole entry): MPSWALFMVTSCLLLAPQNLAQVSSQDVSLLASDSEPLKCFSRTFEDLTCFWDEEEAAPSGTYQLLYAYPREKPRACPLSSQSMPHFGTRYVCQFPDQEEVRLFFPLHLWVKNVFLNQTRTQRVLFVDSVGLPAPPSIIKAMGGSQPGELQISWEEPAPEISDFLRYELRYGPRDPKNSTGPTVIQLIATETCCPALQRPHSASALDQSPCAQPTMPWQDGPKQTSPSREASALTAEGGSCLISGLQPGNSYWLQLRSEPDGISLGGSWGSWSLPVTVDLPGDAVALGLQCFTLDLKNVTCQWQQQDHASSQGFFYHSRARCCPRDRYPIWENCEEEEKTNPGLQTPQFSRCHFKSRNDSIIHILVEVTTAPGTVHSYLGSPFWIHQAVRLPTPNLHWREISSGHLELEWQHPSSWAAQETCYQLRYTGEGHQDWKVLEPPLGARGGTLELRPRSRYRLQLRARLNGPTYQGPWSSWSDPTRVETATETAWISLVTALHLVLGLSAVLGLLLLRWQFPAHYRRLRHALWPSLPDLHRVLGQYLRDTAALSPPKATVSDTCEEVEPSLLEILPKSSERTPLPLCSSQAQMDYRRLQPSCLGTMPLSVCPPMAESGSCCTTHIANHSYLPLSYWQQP
Assay: Agonist activity at human thrombopoietin receptor in Ba/F3 cells assessed as activation of Stat5 response element-driven reporter gene expression relative to 30 ng/mL thrombopoietin
Assay type: functional, cell-based
Conditions: BaF3
Measured Attribute: Efficacy (%)
Answer format: numeric, % implied, no suffix.

Examples from the recorded data:
>  <Sample Smiles>
Cc1cccc(C)c1-c1ccc2c3c([nH]c2c1)-c1cc(O)c(C(=O)O)cc1CC3

>  <Assayed System>
UniProt P40238

>  <Result Number>
30

$$$$
>  <Sample Smiles>
COCc1ccc(-c2ccc3c4c([nH]c3c2)-c2cc(O)c(C(=O)O)cc2CC4)cc1

>  <Assayed System>
UniProt P40238

>  <Result Number>
132

$$$$
>  <Sample Smiles>
O=C(O)c1cc2c(cc1O)-c1[nH]c3cc(C(F)(F)F)ccc3c1CC2

>  <Assayed System>
UniProt P40238

>  <Result Number>
96

$$$$

Okay, next one:
Lookup: Request the reported Efficacy associated with O=C(O)c1cc2ccc3c4ccccc4[nH]c3c2cc1O
Found: 100

---

This section presents compounds with their documented EC50 values.
Target: Thrombopoietin receptor (Homo sapiens)
Sequence (P40238 whole entry): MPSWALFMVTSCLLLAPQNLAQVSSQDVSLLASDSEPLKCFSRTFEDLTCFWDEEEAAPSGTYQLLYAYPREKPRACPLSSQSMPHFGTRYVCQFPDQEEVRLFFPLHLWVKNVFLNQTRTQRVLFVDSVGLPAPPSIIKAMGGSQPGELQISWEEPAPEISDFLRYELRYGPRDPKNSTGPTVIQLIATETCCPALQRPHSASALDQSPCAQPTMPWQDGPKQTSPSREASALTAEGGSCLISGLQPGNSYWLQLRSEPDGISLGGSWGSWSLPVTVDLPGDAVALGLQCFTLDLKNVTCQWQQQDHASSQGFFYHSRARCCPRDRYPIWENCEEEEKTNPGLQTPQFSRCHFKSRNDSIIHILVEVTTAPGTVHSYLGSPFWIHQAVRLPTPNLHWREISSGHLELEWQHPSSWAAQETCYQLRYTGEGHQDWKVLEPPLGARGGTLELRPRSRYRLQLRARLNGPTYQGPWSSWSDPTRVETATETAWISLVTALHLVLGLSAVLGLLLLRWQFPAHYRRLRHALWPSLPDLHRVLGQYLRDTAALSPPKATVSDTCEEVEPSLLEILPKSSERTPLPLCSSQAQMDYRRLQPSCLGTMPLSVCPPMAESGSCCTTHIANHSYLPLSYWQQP
Experiment: Agonist activity at human thrombopoietin receptor in Ba/F3 cells assessed as activation of Stat5 response element-driven reporter gene expression

Lookup: Which value of EC50 has been reported for Cn1c2ccccc2c2ccc3cc(C(=O)O)c(O)cc3c21 in the records?
Found: > 30 µM

Lookup: Query (compound): N#Cc1ccc2[nH]c3c(c2c1)CCc1cc(C(=O)O)c(O)cc1-3 ; field requested: EC50
Found: > 30 µM

Lookup: Quick one: EC50 of Cc1cc(-c2ccc3c4c([nH]c3c2F)-c2ccc(C3=NCCN3)cc2CC4)ccc1F ?
Found: > 30 µM
